target_or_test_system: T1, heterodimeric receptor complex (IL-22Rα/IL-10Rβ) (human, UniProt Q8N6P7 16-574; Q08334 20-325)
T1 sequence (looked up) 1: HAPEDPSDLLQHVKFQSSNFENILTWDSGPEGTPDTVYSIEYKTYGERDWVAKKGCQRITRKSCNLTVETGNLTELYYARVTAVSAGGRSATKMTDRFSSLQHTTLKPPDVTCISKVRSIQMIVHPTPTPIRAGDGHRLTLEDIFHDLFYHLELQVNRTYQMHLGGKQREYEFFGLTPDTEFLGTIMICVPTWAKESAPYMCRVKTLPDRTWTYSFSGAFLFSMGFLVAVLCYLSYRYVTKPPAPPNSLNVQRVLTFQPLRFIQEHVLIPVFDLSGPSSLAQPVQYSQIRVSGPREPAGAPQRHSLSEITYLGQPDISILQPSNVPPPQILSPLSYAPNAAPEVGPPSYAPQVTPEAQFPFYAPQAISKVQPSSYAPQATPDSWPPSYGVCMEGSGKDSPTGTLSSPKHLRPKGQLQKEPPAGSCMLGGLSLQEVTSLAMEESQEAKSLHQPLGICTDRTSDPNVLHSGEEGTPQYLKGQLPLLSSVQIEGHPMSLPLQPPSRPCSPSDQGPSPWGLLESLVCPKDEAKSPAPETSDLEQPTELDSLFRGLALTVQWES
T1 sequence (looked up) 2: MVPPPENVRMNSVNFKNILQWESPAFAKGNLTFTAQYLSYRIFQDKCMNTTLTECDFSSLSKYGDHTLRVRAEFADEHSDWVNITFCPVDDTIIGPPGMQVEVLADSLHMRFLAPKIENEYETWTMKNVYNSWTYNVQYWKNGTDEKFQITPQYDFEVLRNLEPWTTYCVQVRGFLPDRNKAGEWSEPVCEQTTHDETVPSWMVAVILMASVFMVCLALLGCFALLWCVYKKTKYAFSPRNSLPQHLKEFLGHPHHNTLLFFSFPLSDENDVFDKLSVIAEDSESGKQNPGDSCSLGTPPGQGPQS
procedure_text: cell-based or functional assay
Mark 1 (yes) for STAT1/STAT3 EC50 ratio (higher is better); FACS, HT29 cells under 8, 0 (no) if at or over.

Dear colleague, could you confirm whether STAT1/STAT3 EC50 ratio (higher is better); FACS, HT29 cells of 60K-PEG-IL22-P50C (ligand, Cys at position 17 (SEQ ID NO:1 numbering) conjugated to 60 kDa PEG-maleimide (thioether linkage)) APISSHCRLDKSNFQQCYITNRTFMLAKEASLADNNTDVRLIGEKLFHGVSMSERCYLMKQVLNFTLEEVLFPQSDRFQPYMQEVVPFLARLSNRLSTCHIEGDDLHIQRNVQKLKDTVKKLGESGEIKAIGELDLLFMSLRNACI falls below 8? Thanks. 1 (yes)

60K-PEG-IL22-P120C (ligand, Cys at position 87 (SEQ ID NO:1 numbering) conjugated to 60 kDa PEG-maleimide (thioether linkage)) APISSHCRLDKSNFQQPYITNRTFMLAKEASLADNNTDVRLIGEKLFHGVSMSERCYLMKQVLNFTLEEVLFPQSDRFQPYMQEVVCFLARLSNRLSTCHIEGDDLHIQRNVQKLKDTVKKLGESGEIKAIGELDLLFMSLRNACI ? 1 (yes)

80K-PEG-IL22-P120C (ligand, Cys at position 87 (SEQ ID NO:1 numbering) conjugated to 80 kDa PEG-maleimide (thioether linkage)) APISSHCRLDKSNFQQPYITNRTFMLAKEASLADNNTDVRLIGEKLFHGVSMSERCYLMKQVLNFTLEEVLFPQSDRFQPYMQEVVCFLARLSNRLSTCHIEGDDLHIQRNVQKLKDTVKKLGESGEIKAIGELDLLFMSLRNACI ? 0 (no)

80K-PEG-IL22-P50C (ligand, Cys at position 17 (SEQ ID NO:1 numbering) conjugated to 80 kDa PEG-maleimide (thioether linkage)) APISSHCRLDKSNFQQCYITNRTFMLAKEASLADNNTDVRLIGEKLFHGVSMSERCYLMKQVLNFTLEEVLFPQSDRFQPYMQEVVPFLARLSNRLSTCHIEGDDLHIQRNVQKLKDTVKKLGESGEIKAIGELDLLFMSLRNACI ? 1 (yes)
